test target: Solute carrier family 22 member 2 (Rattus norvegicus, UniProt Q9R0W2)
Sequence (Q9R0W2 whole entry): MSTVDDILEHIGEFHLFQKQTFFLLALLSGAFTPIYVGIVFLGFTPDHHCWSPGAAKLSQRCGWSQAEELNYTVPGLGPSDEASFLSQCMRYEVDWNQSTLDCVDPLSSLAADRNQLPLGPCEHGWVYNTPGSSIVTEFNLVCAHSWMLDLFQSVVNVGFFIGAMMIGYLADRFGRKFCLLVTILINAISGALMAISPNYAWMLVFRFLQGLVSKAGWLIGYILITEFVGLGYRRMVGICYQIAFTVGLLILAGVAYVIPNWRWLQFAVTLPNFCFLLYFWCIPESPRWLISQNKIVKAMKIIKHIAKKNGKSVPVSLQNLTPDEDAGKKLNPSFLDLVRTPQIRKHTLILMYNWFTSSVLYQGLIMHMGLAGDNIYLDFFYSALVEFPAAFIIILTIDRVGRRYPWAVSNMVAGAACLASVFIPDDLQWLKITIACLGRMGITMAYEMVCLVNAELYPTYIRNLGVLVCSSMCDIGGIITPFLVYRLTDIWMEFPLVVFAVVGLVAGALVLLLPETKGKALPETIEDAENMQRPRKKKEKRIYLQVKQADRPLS
method summary: TP_TRANSPORTER: inhibition of TEA uptake (apical to cell) in OCT2-expressing NIH3T3 cells
readout name: Ki (µM)

| compound | output unit | reported |
| --- | --- | --- |
| [NH2][Pt]([NH2])([Cl])[Cl] [cis-Platinum diamminedichloride] | µM | 925 |
